- testTarget: human 11beta-HSD1 (Homo sapiens, UniProt P28845)
- Sequence (P28845 whole entry): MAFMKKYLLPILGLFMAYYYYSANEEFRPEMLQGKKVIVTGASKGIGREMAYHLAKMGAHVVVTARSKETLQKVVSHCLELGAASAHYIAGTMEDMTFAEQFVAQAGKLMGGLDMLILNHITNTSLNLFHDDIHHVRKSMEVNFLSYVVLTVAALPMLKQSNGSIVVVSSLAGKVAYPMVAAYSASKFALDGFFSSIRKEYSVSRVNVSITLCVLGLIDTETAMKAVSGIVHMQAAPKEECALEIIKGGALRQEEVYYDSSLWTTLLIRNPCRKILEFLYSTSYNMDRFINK
measure: pIC50
To interpret pIC50, take it as minus log10 of a concentration measured in moles per litre.

Req: Quick one: pIC50 for Cc1c(C23CC4CC(CC(C4)C2)C3)c(=O)n2n1CCCCC2 [Example 51] ?
Resp: 6.88
